B1: E3 ubiquitin-protein ligase Midline-1, residues 172 to 214; numbered along this chain, O15344 (parent)
chain: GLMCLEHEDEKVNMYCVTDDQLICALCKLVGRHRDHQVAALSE

variants of: B1; experiment: abundance fitness (aPCA) (normalised: wild type 0, dead -1); higher = more abundant; growth selection in yeast, the domain comes from the species named; settings: Homo sapiens
Label 1 when abundance fitness is at or above -0.01; anything below gets 0.

Check out these entries, answers already filled in.
GLMCLEHHDEKVNMYCVTDDQLICALCKLVGRHRDHQVAALSE [E8H]
1
GLMCLEHEDEKVNMYCVTDDQLICALCKLVQRHRDHQVAALSE [G31Q]
0
GLMCLSHEDEKVNMYCVTDDQLICALCKLVGRHRDHQVAALSE [E6S]
1
GLMCLEHEDEKVNMYCVTDDQLICALCKLVGRHRQHQVAALSE [D35Q]
1

[in] Determine whether this variant has abundance fitness no lower than -0.01: GLMCCEHEDEKVNMYCVTDDQLICALCKLVGRHRDHQVAALSE [L5C]
[out] 1

[in] Determine whether this variant has abundance fitness no lower than -0.01: GLMCKEHEDEKVNMYCVTDDQLICALCKLVGRHRDHQVAALSE [L5K]
[out] 1

[in] Determine whether this variant has abundance fitness no lower than -0.01: GLMCLEHEDEKVNMYCVTEDQLICALCKLVGRHRDHQVAALSE [D19E]
[out] 0

[in] Determine whether this variant has abundance fitness no lower than -0.01: GLMCLEHEDEKVNMYCVTDDQLICALCKLVGRHRDHFVAALSE [Q37F]
[out] 0

[in] Determine whether this variant has abundance fitness no lower than -0.01: GLMCTEHEDEKVNMYCVTDDQLICALCKLVGRHRDHQVAALSE [L5T]
[out] 0

[in] Determine whether this variant has abundance fitness no lower than -0.01: GLMCLEHEDEKVNMYCVTDDQLICALCKLVGRHRDHQVAALTE [S42T]
[out] 1

[in] Determine whether this variant has abundance fitness no lower than -0.01: GLMCLEHEDEKVNMYCVKDDQLICALCKLVGRHRDHQVAALSE [T18K]
[out] 0

[in] Determine whether this variant has abundance fitness no lower than -0.01: GLMCLEHEDEKVNMYCVTDDQLICALCKLVGRHRDHQVAASSE [L41S]
[out] 1

[in] Determine whether this variant has abundance fitness no lower than -0.01: GLMCLEHEDEKVNMYCVTDDQLICALCKTVGRHRDHQVAALSE [L29T]
[out] 1

[in] Determine whether this variant has abundance fitness no lower than -0.01: GLMCLEHEDEKVNMYCVTDDQLICALCKKVGRHRDHQVAALSE [L29K]
[out] 1

[in] Determine whether this variant has abundance fitness no lower than -0.01: GLMCLEHEYEKVNMYCVTDDQLICALCKLVGRHRDHQVAALSE [D9Y]
[out] 0

[in] Determine whether this variant has abundance fitness no lower than -0.01: GFMCLEHEDEKVNMYCVTDDQLICALCKLVGRHRDHQVAALSE [L2F]
[out] 0

[in] Determine whether this variant has abundance fitness no lower than -0.01: GLMCFEHEDEKVNMYCVTDDQLICALCKLVGRHRDHQVAALSE [L5F]
[out] 0

[in] Determine whether this variant has abundance fitness no lower than -0.01: GLMCLEHEDEKVNMYCVTDDQLICALCKLVGRHSDHQVAALSE [R34S]
[out] 0

[in] Determine whether this variant has abundance fitness no lower than -0.01: GLLCLEHEDEKVNMYCVTDDQLICALCKLVGRHRDHQVAALSE [M3L]
[out] 0

[in] Determine whether this variant has abundance fitness no lower than -0.01: GLMCLEHEDEKVNMGCVTDDQLICALCKLVGRHRDHQVAALSE [Y15G]
[out] 0

[in] Determine whether this variant has abundance fitness no lower than -0.01: GLMCLWHEDEKVNMYCVTDDQLICALCKLVGRHRDHQVAALSE [E6W]
[out] 0

[in] Determine whether this variant has abundance fitness no lower than -0.01: GLMCLEHEDEKVNMYCVTDDQLICALCKLVGRARDHQVAALSE [H33A]
[out] 0
